Origin of measurements: the supplement of paper PMC10646978

- Test system: RAW-Dual (murine macrophage reporter line)
- Test: IRF reporter (Lucia luciferase) activity fold change vs agonist alone; higher = enhanced IRF activity
- Experimental conditions: modulator concentration 10 µM; agonist: LPS 0.1 ug/mL
Catalogue of IRF reporter values

Solved cases (6 shown):
{"Compound": "O=C(Nc1ccc([N+](=O)[O-])cc1Br)C1CC12CCC2 (stereo not drawn)", "Assay metric": "IRF reporter", "Value measured": 1.39}
{"Compound": "COc1cc2c(cc1OC)C1C(=O)c3ccc4c(c3OC1CO2)CCC(C)(C)O4 (stereo not drawn)", "Assay metric": "IRF reporter", "Value measured": 1.52}
{"Compound": "COC(=O)C1=C(C)NC(C)=C(C(=O)OC)C1c1ccc(-c2ccc(Cl)cc2Cl)o1", "Assay metric": "IRF reporter", "Value measured": 1.23}
{"Compound": "CN(C(=NS(=O)(=O)c1ccccc1)c1ccccc1)c1ccc(O)cc1", "Assay metric": "IRF reporter", "Value measured": 1.2}
{"Compound": "Cl.Cl.OCCOCCN1CCN(C(c2ccccc2)c2ccc(Cl)cc2)CC1 (stereo not drawn)", "Assay metric": "IRF reporter", "Value measured": 1.27}
{"Compound": "CCN(CC)c1ccc2cc(-c3nnc(NCc4ccc(F)cc4)s3)c(=O)oc2c1", "Assay metric": "IRF reporter", "Value measured": 1.08}

Find the measured IRF reporter of "O=C(Nc1ccc(F)c(F)c1)c1ccnc(OCC2CCOCC2)c1" and report it.
1.16

Return IRF reporter (reported value) for this compound: COCCOC(=O)C1=C(C)NC(C)=C(C(=O)OCC=Cc2ccccc2)C1c1cccc([N+](=O)[O-])c1 (stereo not drawn)
1.06
